Catalogue of FACS-Seq fitted mean (log10) values
B1: library; a variant is named by its letters at N, in order (parent)
chain: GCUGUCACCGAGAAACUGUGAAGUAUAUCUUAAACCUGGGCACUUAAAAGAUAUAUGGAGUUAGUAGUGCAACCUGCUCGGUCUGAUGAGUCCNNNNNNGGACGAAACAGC

- Variants of: B1
- Test Name: FACS-Seq fitted mean relative fluorescence mCherry/BFP with ligand (log10 relative fluorescence); HEK293T; ligand: cyclic di-GMP (c-di-GMP-II aptamer); ligand concentration (+) FACS-Seq: 1 mM; higher = higher reporter protein expression
- Particulars: ligand present: yes
Form rule: numeric answer, no unit written next to it.

Below are worked cases with known answers.
{"Polymer Sequence": "GCUGUCACCGAGAAACUGUGAAGUAUAUCUUAAACCUGGGCACUUAAAAGAUAUAUGGAGUUAGUAGUGCAACCUGCUCGGUCUGAUGAGUCCACAAAUGGACGAAACAGC", "Reported Result": -0.291}
{"Polymer Sequence": "GCUGUCACCGAGAAACUGUGAAGUAUAUCUUAAACCUGGGCACUUAAAAGAUAUAUGGAGUUAGUAGUGCAACCUGCUCGGUCUGAUGAGUCCUUGAAGGGACGAAACAGC", "Reported Result": 0.0171}
{"Polymer Sequence": "GCUGUCACCGAGAAACUGUGAAGUAUAUCUUAAACCUGGGCACUUAAAAGAUAUAUGGAGUUAGUAGUGCAACCUGCUCGGUCUGAUGAGUCCGAACCCGGACGAAACAGC", "Reported Result": 0.39}

Read the entry "GCUGUCACCGAGAAACUGUGAAGUAUAUCUUAAACCUGGGCACUUAAAAGAUAUAUGGAGUUAGUAGUGCAACCUGCUCGGUCUGAUGAGUCCUCCAGCGGACGAAACAGC" and write its reported FACS-Seq fitted mean (log10). -0.609

Return FACS-Seq fitted mean (log10) for the following variant: "GCUGUCACCGAGAAACUGUGAAGUAUAUCUUAAACCUGGGCACUUAAAAGAUAUAUGGAGUUAGUAGUGCAACCUGCUCGGUCUGAUGAGUCCUUAUGAGGACGAAACAGC" -0.563

Output FACS-Seq fitted mean (log10) of "GCUGUCACCGAGAAACUGUGAAGUAUAUCUUAAACCUGGGCACUUAAAAGAUAUAUGGAGUUAGUAGUGCAACCUGCUCGGUCUGAUGAGUCCCUUGACGGACGAAACAGC" 0.101

Provide one value: measured FACS-Seq fitted mean (log10) of "GCUGUCACCGAGAAACUGUGAAGUAUAUCUUAAACCUGGGCACUUAAAAGAUAUAUGGAGUUAGUAGUGCAACCUGCUCGGUCUGAUGAGUCCGCAGUAGGACGAAACAGC" 0.0693

Using the record for "GCUGUCACCGAGAAACUGUGAAGUAUAUCUUAAACCUGGGCACUUAAAAGAUAUAUGGAGUUAGUAGUGCAACCUGCUCGGUCUGAUGAGUCCCAAAGUGGACGAAACAGC" , state its measured FACS-Seq fitted mean (log10). 0.204

Name the recorded FACS-Seq fitted mean (log10) of the variant listed here: "GCUGUCACCGAGAAACUGUGAAGUAUAUCUUAAACCUGGGCACUUAAAAGAUAUAUGGAGUUAGUAGUGCAACCUGCUCGGUCUGAUGAGUCCAUACAUGGACGAAACAGC" 0.241

Using known records, supply FACS-Seq fitted mean (log10) for "GCUGUCACCGAGAAACUGUGAAGUAUAUCUUAAACCUGGGCACUUAAAAGAUAUAUGGAGUUAGUAGUGCAACCUGCUCGGUCUGAUGAGUCCAAAGCUGGACGAAACAGC" -0.245

Indicate its recorded FACS-Seq fitted mean (log10); the variant in question is "GCUGUCACCGAGAAACUGUGAAGUAUAUCUUAAACCUGGGCACUUAAAAGAUAUAUGGAGUUAGUAGUGCAACCUGCUCGGUCUGAUGAGUCCAUAGAAGGACGAAACAGC" -0.217
